A collection of molecules and their measured pKi
# assayed_system: human recombinant bradykinin B1 receptor (Homo sapiens, UniProt P46663)
# Construct: purchased Euroscreen ES-091; host or cells: CHO cells
# Sequence (P46663 1-353): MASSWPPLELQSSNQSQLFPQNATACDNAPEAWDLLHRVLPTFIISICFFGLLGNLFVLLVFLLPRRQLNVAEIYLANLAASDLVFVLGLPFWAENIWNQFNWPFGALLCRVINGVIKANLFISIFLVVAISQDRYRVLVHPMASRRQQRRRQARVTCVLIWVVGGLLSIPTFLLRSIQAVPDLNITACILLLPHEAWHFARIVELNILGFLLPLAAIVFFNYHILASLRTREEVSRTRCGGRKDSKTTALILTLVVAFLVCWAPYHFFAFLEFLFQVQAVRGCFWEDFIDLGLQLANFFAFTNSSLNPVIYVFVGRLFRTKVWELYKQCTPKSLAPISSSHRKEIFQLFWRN
# protocol_details: Human recombinant bradykinin B1 receptor binding
# measurement_context: reference compounds, binding test; read-out: Ki
pKi: −log10 of the molar value.

molecule	pKi
CN1CCN(C(=O)C2CCN(S(=O)(=O)c3ccc(NCC(c4ccccc4)c4ccccc4)c(C(=O)N4CCOCC4)c3)CC2)CC1 [NVP-SAA164, reference compound]	8.10
CCCN1C(=O)[C@H](NC(=O)Nc2ccc(N3CCC(N4CCCCC4)CC3)cc2)N=C(c2ccc(C)cc2)c2ccccc21 [compound 3, reference compound]	7.87

---

# assayed_system: human recombinant bradykinin B1 receptor (Homo sapiens, UniProt P46663)
# Construct: purchased Euroscreen ES-091; host or cells: CHO cells
# protocol_details: Human recombinant bradykinin B1 receptor binding
# measurement_context: CHO cell membranes, [3H]-[Des-Arg10] Kallidin radioligand; read-out: B1 binding
Where a name gives a salt, the structure may show the parent alone.

compound	Ki
O=C(NCC(=O)N1CCCN(CCCN2CCCC2)CC1)c1ccc(S(=O)(=O)Nc2ccccc2Oc2ccc(Cl)cc2Cl)cc1	< 20 nM
CN1CCCC(CN2CCN(C(=O)CNC(=O)c3ccc(S(=O)(=O)Nc4ccccc4C(=O)c4ccccc4)cc3)CC2)C1 (stereo not shown)	< 20 nM
O=C(NCC(=O)N1CCCCCC1)c1ccc(S(=O)(=O)Nc2ccccc2C(=O)c2ccccc2)cc1	< 20 nM
O=C(NCC(=O)N1CCC(CCN2CCCC2)CC1)c1ccc(S(=O)(=O)Nc2ccccc2C(=O)c2ccccc2)cc1	< 20 nM
O=C(NCC(=O)N1CCC(CCN2CCCC2)CC1)c1ccc(S(=O)(=O)Nc2ccccc2Oc2ccccc2)cc1	< 20 nM
NC1CCN(C(=O)CNC(=O)c2ccc(S(=O)(=O)Nc3ccccc3Oc3ccccc3)cc2)CC1 [Example 11.3, hydrochloride]	< 20 nM
O=C(NCC(=O)N1CCC(CO)CC1)c1ccc(S(=O)(=O)Nc2ccccc2C(=O)c2ccccc2)cc1	< 20 nM
CN(C)CCN1CCN(C(=O)CNC(=O)c2ccc(S(=O)(=O)Nc3ccccc3C(=O)c3ccccc3)cc2)CC1	< 20 nM
CN(C)CCCN1CCN(C(=O)CNC(=O)c2ccc(S(=O)(=O)Nc3ccccc3Oc3ccccc3)cc2)CC1	< 20 nM
O=C(NCC(=O)N1CCC(O)CC1)c1ccc(S(=O)(=O)Nc2ccccc2Oc2ccccc2)cc1	20 to 100 nM
O=C(NCC(=O)N1CCN(CCCN2CCCCC2)CC1)c1ccc(S(=O)(=O)Nc2ccccc2Oc2ccc(Cl)cc2Cl)cc1	< 20 nM
O=C(NCC(=O)N1CCNCC1)c1ccc(S(=O)(=O)Nc2ccccc2Oc2ccccc2)cc1	20 to 100 nM
N#CC1CCN(C(=O)CNC(=O)c2ccc(S(=O)(=O)Nc3ccccc3C(=O)c3ccccc3)cc2)CC1	< 20 nM
CCN(CC)CCN1CCN(C(=O)CNC(=O)c2ccc(S(=O)(=O)Nc3ccccc3Oc3ccccc3)cc2)CC1	< 20 nM
O=C(NCC(=O)N1CCC(O)CC1)c1ccc(S(=O)(=O)Nc2ccccc2C(=O)c2ccccc2)cc1	< 20 nM
O=C(NCC(=O)N1CCN(CCCN2CCOCC2)CC1)c1ccc(S(=O)(=O)Nc2ccccc2Oc2ccc(Cl)cc2Cl)cc1	< 20 nM
CN(C)CCN1CCN(C(=O)CNC(=O)c2ccc(S(=O)(=O)Nc3ccccc3Oc3ccccc3)cc2)CC1	< 20 nM
O=C(NCC(=O)N1CCN(c2ncccn2)CC1)c1ccc(S(=O)(=O)Nc2ccccc2Oc2ccc(Cl)cc2Cl)cc1	< 20 nM
O=C(NCC(=O)N1CCN(CCN2CCCC2)CC1)c1ccc(S(=O)(=O)Nc2ccccc2Oc2ccccc2)cc1	< 20 nM
O=C(NCC(=O)N1CCCNCC1)c1ccc(S(=O)(=O)Nc2ccccc2Oc2ccccc2)cc1 [Example 11.1, hydrochloride]	20 to 100 nM
O=C(NCC(=O)N1CCN(CCN2CCCC2)CC1)c1ccc(S(=O)(=O)Nc2ccccc2C(=O)c2ccccc2)cc1	< 20 nM
CCN(CC)CCN1CCN(C(=O)CNC(=O)c2ccc(S(=O)(=O)Nc3ccccc3Oc3ccc(Cl)cc3Cl)cc2)CC1	< 20 nM
CN(C)CCN1CCN(C(=O)CNC(=O)c2ccc(S(=O)(=O)Nc3ccccc3Oc3ccc(Cl)cc3Cl)cc2)CC1	< 20 nM
CN(C)CCCN1CCN(C(=O)CNC(=O)c2ccc(S(=O)(=O)Nc3ccccc3Oc3ccc(Cl)cc3Cl)cc2)CC1	< 20 nM
O=C(NCC(=O)N1CCC(C(F)(F)F)CC1)c1ccc(S(=O)(=O)Nc2ccccc2C(=O)c2ccccc2)cc1	< 20 nM
CN(C)CCCN1CCN(C(=O)CNC(=O)c2ccc(S(=O)(=O)Nc3ccccc3C(=O)c3ccccc3)cc2)CC1	< 20 nM
NC(=O)C1CCN(C(=O)CNC(=O)c2ccc(S(=O)(=O)Nc3ccccc3C(=O)c3ccccc3)cc2)CC1	< 20 nM
O=C(NCC(=O)N1CCC(N2CCCC2)CC1)c1ccc(S(=O)(=O)Nc2ccccc2Oc2ccc(Cl)cc2Cl)cc1	< 20 nM
